- System: 993429-296-R-J1-PDC complex spheroid growth, percent test/control
- experiment: Anticancer human tumor 993429-296-R-J1-PDC patient-derived uterine sarcoma cell line growth inhibition [Asc]
- condition parameters: second compound 1 µM; first compound 0.01 µM; stronger effect = lower value
- Text: Multicellular complex tumor spheroid response to apoptosis pathway targeting inhibitors Alrizomadlin, Pelcitoclax, and Dasminapant in combination with a variety of drugs and investigational agents in selected tumor cell lines […] Compounds. […] If the clinical Cmax for an agent had not been determined, the highest concentration tested was 10 microM. […]
reported property: viability, T/C (%)

{"columns": ["compound", "reported property", "val"],
 "data": [
  ["CNC(C)C(=O)NC1CN(S(=O)(=O)c2cccc(S(=O)(=O)N3CCC4CCC(C(=O)NC(c5ccccc5)c5ccccc5)N4C(=O)C(NC(=O)C(C)NC)C3)c2)CCC2CCC(C(=O)NC(c3ccccc3)c3ccccc3)N2C1=O (stereo not drawn) + Cc1c(S(C)(=O)=O)c(-c2cc(F)cc(N3CCN(c4ccc(NS(=O)(=O)c5ccc(NC(CCN6CCC(C(=O)OCCCP(=O)(O)O)CC6)CSc6ccccc6)c(S(=O)(=O)C(F)(F)F)c5)cc4)CC3)c2)c(-c2ccc(Cl)cc2)n1C(C)C", "viability, T/C", 40.8],
  ["O=C(c1ccc(F)c(F)c1Nc1ccc(I)cc1F)N1CC(O)([C@@H]2CCCCN2)C1 + CNC(C)C(=O)NC1CN(S(=O)(=O)c2cccc(S(=O)(=O)N3CCC4CCC(C(=O)NC(c5ccccc5)c5ccccc5)N4C(=O)C(NC(=O)C(C)NC)C3)c2)CCC2CCC(C(=O)NC(c3ccccc3)c3ccccc3)N2C1=O", "viability, T/C", 48.4],
  ["COc1c(OCCCN2CCOCC2)ccc2c3n(c(=NC(=O)c4cnc(N)nc4)nc12)CCN3 + Cc1c(S(C)(=O)=O)c(-c2cc(F)cc(N3CCN(c4ccc(NS(=O)(=O)c5ccc(NC(CCN6CCC(C(=O)OCCCP(=O)(O)O)CC6)CSc6ccccc6)c(S(=O)(=O)C(F)(F)F)c5)cc4)CC3)c2)c(-c2ccc(Cl)cc2)n1C(C)C", "viability, T/C", 37.9]
]}

* * *

Measured pIC50, listed per entry for reference.
- Test system: 993429-296-R-J1-PDC complex spheroid growth, percent test/control
- experiment: Anticancer human tumor 993429-296-R-J1-PDC cell line growth inhibition [Asc];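 also: spheroids exposed to compounds for seven days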
- condition parameters: curve of first compound; second compound 1 µM
pIC50: −log10 of the molar value.
reported property: pIC50

{"columns": ["molecule", "reported property", "result modifier", "val"],
 "data": [
  ["O=C(c1cc(Cc2n[nH]c(=O)c3ccccc23)ccc1F)N1CCN(C(=O)C2CC2)CC1 + CNC(C)C(=O)NC1CN(S(=O)(=O)c2cccc(S(=O)(=O)N3CCC4CCC(C(=O)NC(c5ccccc5)c5ccccc5)N4C(=O)C(NC(=O)C(C)NC)C3)c2)CCC2CCC(C(=O)NC(c3ccccc3)c3ccccc3)N2C1=O", "pIC50", "=", 6.04],
  ["C=C(F)C(=O)N1CCN(c2nc(OCC3CCCN3C)nc3c2CCN(c2cccc4cccc(Cl)c24)C3)CC1CC#N (stereo unspecified) + CNC(C)C(=O)NC1CN(S(=O)(=O)c2cccc(S(=O)(=O)N3CCC4CCC(C(=O)NC(c5ccccc5)c5ccccc5)N4C(=O)C(NC(=O)C(C)NC)C3)c2)CCC2CCC(C(=O)NC(c3ccccc3)c3ccccc3)N2C1=O", "pIC50", "=", 7.25],
  ["C=CC(=O)N1CCN(c2nc(=O)n(-c3c(C)ccnc3C(C)C)c3nc(-c4c(O)cccc4F)c(F)cc23)C(C)C1 (stereo unspecified) + CNC(C)C(=O)NC1CN(S(=O)(=O)c2cccc(S(=O)(=O)N3CCC4CCC(C(=O)NC(c5ccccc5)c5ccccc5)N4C(=O)C(NC(=O)C(C)NC)C3)c2)CCC2CCC(C(=O)NC(c3ccccc3)c3ccccc3)N2C1=O", "pIC50", "<", 5.00],
  ["C=CC(=O)N1CCN(c2nc(=O)n(-c3c(C)ccnc3C(C)C)c3nc(-c4c(O)cccc4F)c(F)cc23)C(C)C1 (stereo unspecified) + Cc1c(S(C)(=O)=O)c(-c2cc(F)cc(N3CCN(c4ccc(NS(=O)(=O)c5ccc(NC(CCN6CCC(C(=O)OCCCP(=O)(O)O)CC6)CSc6ccccc6)c(S(=O)(=O)C(F)(F)F)c5)cc4)CC3)c2)c(-c2ccc(Cl)cc2)n1C(C)C", "pIC50", "=", 5.36],
  ["NC(=O)C(=Cn1cnc(-c2cc(C(F)(F)F)cc(C(F)(F)F)c2)n1)c1cncnc1 + Cc1c(S(C)(=O)=O)c(-c2cc(F)cc(N3CCN(c4ccc(NS(=O)(=O)c5ccc(NC(CCN6CCC(C(=O)OCCCP(=O)(O)O)CC6)CSc6ccccc6)c(S(=O)(=O)C(F)(F)F)c5)cc4)CC3)c2)c(-c2ccc(Cl)cc2)n1C(C)C", "pIC50", ">", 9.02],
  ["CCN1C(C(=O)NC23CCC(C(=O)O)(CC2)CC3)C(c2cccc(Cl)c2F)C2(C(=O)Nc3cc(Cl)ccc32)C12CCCCC2 (stereo unspecified) + Cc1c(S(C)(=O)=O)c(-c2cc(F)cc(N3CCN(c4ccc(NS(=O)(=O)c5ccc(NC(CCN6CCC(C(=O)OCCCP(=O)(O)O)CC6)CSc6ccccc6)c(S(=O)(=O)C(F)(F)F)c5)cc4)CC3)c2)c(-c2ccc(Cl)cc2)n1C(C)C", "pIC50", "=", 6.02]
]}

* * *

- Tested on: 993429-296-R-J1-PDC complex spheroid growth, percent test/control
- experiment: Anticancer human tumor 993429-296-R-J1-PDC cell line growth inhibition [Asc];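 also: spheroids exposed to compounds for seven days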
- condition parameters: second compound 3.16 µM; first compound 0.316 µM; stronger effect = lower value
Binarize viability, T/C at 40%; below is yes, at or above is no.

{"columns": ["compound", "label class"],
 "data": [
  ["COc1c(OCCCN2CCOCC2)ccc2c3n(c(=NC(=O)c4cnc(N)nc4)nc12)CCN3 + Cc1c(S(C)(=O)=O)c(-c2cc(F)cc(N3CCN(c4ccc(NS(=O)(=O)c5ccc(NC(CCN6CCC(C(=O)OCCCP(=O)(O)O)CC6)CSc6ccccc6)c(S(=O)(=O)C(F)(F)F)c5)cc4)CC3)c2)c(-c2ccc(Cl)cc2)n1C(C)C", "yes"],
  ["CNC(C)C(=O)NC1CN(S(=O)(=O)c2cccc(S(=O)(=O)N3CCC4CCC(C(=O)NC(c5ccccc5)c5ccccc5)N4C(=O)C(NC(=O)C(C)NC)C3)c2)CCC2CCC(C(=O)NC(c3ccccc3)c3ccccc3)N2C1=O (stereo not drawn) + Cc1c(S(C)(=O)=O)c(-c2cc(F)cc(N3CCN(c4ccc(NS(=O)(=O)c5ccc(NC(CCN6CCC(C(=O)OCCCP(=O)(O)O)CC6)CSc6ccccc6)c(S(=O)(=O)C(F)(F)F)c5)cc4)CC3)c2)c(-c2ccc(Cl)cc2)n1C(C)C", "yes"],
  ["O=C(c1ccc(F)c(F)c1Nc1ccc(I)cc1F)N1CC(O)([C@@H]2CCCCN2)C1 + Cc1c(S(C)(=O)=O)c(-c2cc(F)cc(N3CCN(c4ccc(NS(=O)(=O)c5ccc(NC(CCN6CCC(C(=O)OCCCP(=O)(O)O)CC6)CSc6ccccc6)c(S(=O)(=O)C(F)(F)F)c5)cc4)CC3)c2)c(-c2ccc(Cl)cc2)n1C(C)C", "yes"],
  ["CCN1CCN(Cc2ccc(Nc3ncc(F)c(-c4cc(F)c5nc(C)n(C(C)C)c5c4)n3)nc2)CC1 + Cc1c(S(C)(=O)=O)c(-c2cc(F)cc(N3CCN(c4ccc(NS(=O)(=O)c5ccc(NC(CCN6CCC(C(=O)OCCCP(=O)(O)O)CC6)CSc6ccccc6)c(S(=O)(=O)C(F)(F)F)c5)cc4)CC3)c2)c(-c2ccc(Cl)cc2)n1C(C)C", "yes"],
  ["O=C(c1cc(Cc2n[nH]c(=O)c3ccccc23)ccc1F)N1CCN(C(=O)C2CC2)CC1 + Cc1c(S(C)(=O)=O)c(-c2cc(F)cc(N3CCN(c4ccc(NS(=O)(=O)c5ccc(NC(CCN6CCC(C(=O)OCCCP(=O)(O)O)CC6)CSc6ccccc6)c(S(=O)(=O)C(F)(F)F)c5)cc4)CC3)c2)c(-c2ccc(Cl)cc2)n1C(C)C", "no"],
  ["C#Cc1c(F)ccc2cc(O)cc(-c3ncc4c(N5CC6CCC(C5)N6)nc(OCC56CCCN5CC(F)C6)nc4c3F)c12 (stereo not drawn) + Cc1c(S(C)(=O)=O)c(-c2cc(F)cc(N3CCN(c4ccc(NS(=O)(=O)c5ccc(NC(CCN6CCC(C(=O)OCCCP(=O)(O)O)CC6)CSc6ccccc6)c(S(=O)(=O)C(F)(F)F)c5)cc4)CC3)c2)c(-c2ccc(Cl)cc2)n1C(C)C", "no"],
  ["C=C(F)C(=O)N1CCN(c2nc(OCC3CCCN3C)nc3c2CCN(c2cccc4cccc(Cl)c24)C3)CC1CC#N (stereo not drawn) + Cc1c(S(C)(=O)=O)c(-c2cc(F)cc(N3CCN(c4ccc(NS(=O)(=O)c5ccc(NC(CCN6CCC(C(=O)OCCCP(=O)(O)O)CC6)CSc6ccccc6)c(S(=O)(=O)C(F)(F)F)c5)cc4)CC3)c2)c(-c2ccc(Cl)cc2)n1C(C)C", "yes"],
  ["C=CC(=O)N1CCN(c2nc(=O)n(-c3c(C)ccnc3C(C)C)c3nc(-c4c(O)cccc4F)c(F)cc23)C(C)C1 (stereo not drawn) + Cc1c(S(C)(=O)=O)c(-c2cc(F)cc(N3CCN(c4ccc(NS(=O)(=O)c5ccc(NC(CCN6CCC(C(=O)OCCCP(=O)(O)O)CC6)CSc6ccccc6)c(S(=O)(=O)C(F)(F)F)c5)cc4)CC3)c2)c(-c2ccc(Cl)cc2)n1C(C)C", "no"]
]}

Where do the numbers come from? From PubChem BioAssay AID1963446.
